# credit: ChEMBL document CHEMBL1126121

- tested_target: Thromboxane A2 receptor (Homo sapiens)
- experimental_details: Binding affinity for thromboxane A2 receptor by measuring ability to displace [3H]U-46619 from guinea pig platelets at 1 uM
- details: Cavia porcellus, target entry is the homologue from another species
Classification field: yes = inhibition at or over 90%; no = inhibition under 90%.

Input: For this compound, is measured inhibition 90% or higher? O=C(O)c1ccc2c(c1)C(SCCNS(=O)(=O)c1cccnc1)c1ccccc1CO2 (centres undefined)
Output: yes

Input: Exam item: decide whether the reported inhibition for O=C(O)c1ccc2c(c1)C(SCC/N=C(\S)NCc1ccccc1)c1ccccc1CO2 (centres undefined) is at least 90%.
Output: yes

Input: Dear colleague, could you confirm whether O=C(NCCSC1c2ccccc2COc2ccc(C(=O)O)cc21)NCc1ccccc1 (centres undefined) has inhibition at or above 90%?
Output: no

Input: API: above_or_equal(metric=inhibition, cutoff=90%) for item O=C(O)c1ccc2c(c1)C(SCCNS(=O)(=O)c1ccc(F)cc1)c1ccccc1CO2 (centres undefined)
Output: yes

Input: Has Cc1ccc(S(=O)(=O)NCCSC2c3ccccc3COc3ccc(C(=O)O)cc32)cc1 (centres undefined) a recorded inhibition greater than or equal to 90%?
Output: yes

Input: Please check the record O=C(O)c1ccc2c(c1)C(SCCNS(=O)(=O)c1cccc([N+](=O)[O-])c1)c1ccccc1CO2 (centres undefined) and state if its inhibition is at or above 90%.
Output: yes

Input: Record O=C(O)c1ccc2c(c1)C(SCCNS(=O)(=O)c1ccccc1[N+](=O)[O-])c1ccccc1CO2 (centres undefined) ; criterion: inhibition no lower than 90%. Met?
Output: yes

Input: Hello, I need to know if O=C(O)c1ccc2c(c1)C(SCCNS(=O)(=O)c1ccccc1)c1ccccc1CC2 (centres undefined) has measured inhibition not below 90%. Thanks!
Output: yes

Input: Dear colleague, could you confirm whether O=C(NCCSC1c2ccccc2COc2ccc(C(=O)O)cc21)Nc1ccccc1 (centres undefined) has inhibition at or above 90%?
Output: yes

Input: Answer whether inhibition of O=C(O)c1ccc2c(c1)OCc1ccccc1C2SCCNS(=O)(=O)c1ccccc1 (centres undefined) is greater than or equal to 90%.
Output: no

Input: Determine whether measured inhibition meets or exceeds 90% for O=C(O)c1ccc2c(c1)C(SCCNS(=O)(=O)c1cccs1)c1ccccc1CO2 (centres undefined)
Output: yes

Input: hey, is inhibition for this one >= 90%? O=C(O)c1ccc2c(c1)C(SCCNS(=O)(=O)c1ccc(Cl)cc1)c1ccccc1CO2 (centres undefined)
Output: yes

* * *

Would you kindly list inhibition for each of these compounds?
- tested_target: Thromboxane-A synthase (Homo sapiens)
- experimental_details: Inhibitory activity against thromboxane A2 synthase obtained from bovine platelet microsomes at 10 uM
- details: Bos taurus, target entry is the homologue from another species
Your answer is read as %, so omit the unit and give the number.

Input: Identify the measured inhibition of O=C(NCCSC1c2ccccc2COc2ccc(C(=O)O)cc21)NCc1ccccc1 (stereo not given) for Thromboxane-A synthase (Homo sapiens).
Output: 41

Input: Please provide the recorded inhibition for O=C(O)c1ccc2c(c1)C(SCCNC(=O)C1CCCCC1)c1ccccc1CO2 (stereo not given) , tested on Thromboxane-A synthase (Homo sapiens).
Output: 19

Input: Can you look up inhibition on Thromboxane-A synthase (Homo sapiens) for Cc1ccsc1C(=O)NCCSC1c2ccccc2COc2ccc(C(=O)O)cc21 (stereo not given) ?
Output: 79

Input: Form field - read-out: inhibition; system: Thromboxane-A synthase (Homo sapiens); submitted item: CCCCCC(=O)NCCSC1c2ccccc2COc2ccc(C(=O)O)cc21 (stereo not given)
Output: 4

Input: Form field: inhibition recorded for O=C(O)c1cccc(C(SCCNS(=O)(=O)c2ccccc2)c2ccccc2)c1 (stereo not given) with Thromboxane-A synthase (Homo sapiens) (enter value)
Output: 19
